Experiment: Stability in human serum by HPLC analysis
Format: in vitro ADME
Conditions: 37° C., in 32 min, read-out: degradation in human serum
No end group written: not given here.
readout: metabolised at 32 min, 100 μM

Task: # query: metabolised at 32 min, 100 μM of entry ISYGNDALMP-NH2 [Peptide 8, reference compound]
Result: > 50%

* * *

Target: MMP2 (Homo sapiens, UniProt P08253)
Construct: purchased Sigma-Aldrich
Sequence (P08253 110-660, species assumed): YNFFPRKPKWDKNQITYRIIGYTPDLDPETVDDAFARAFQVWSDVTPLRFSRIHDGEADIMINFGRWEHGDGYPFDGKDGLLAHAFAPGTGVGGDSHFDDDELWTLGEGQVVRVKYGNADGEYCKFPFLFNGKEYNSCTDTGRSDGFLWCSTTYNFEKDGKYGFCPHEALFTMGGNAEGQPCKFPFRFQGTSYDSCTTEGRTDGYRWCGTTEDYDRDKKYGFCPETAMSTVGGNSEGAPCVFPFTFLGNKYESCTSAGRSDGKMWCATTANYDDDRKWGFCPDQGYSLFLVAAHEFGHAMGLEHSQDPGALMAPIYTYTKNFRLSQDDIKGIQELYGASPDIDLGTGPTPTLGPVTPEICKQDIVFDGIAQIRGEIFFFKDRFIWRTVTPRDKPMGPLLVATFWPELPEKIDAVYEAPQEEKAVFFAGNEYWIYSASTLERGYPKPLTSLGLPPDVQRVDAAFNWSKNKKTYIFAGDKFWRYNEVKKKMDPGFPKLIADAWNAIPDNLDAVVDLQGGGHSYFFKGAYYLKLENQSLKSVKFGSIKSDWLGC
Assay: MMPs inhibition assay (FRET substrate), MMP2
Assay type: biochemical
No end group written: not given here.
readout: pKi
Answers are plain numbers, as −log10 of the molar value.

Task: Recall the recorded pKi for ISYGNDALMP-NH2 [Peptide 8, reference compound] with MMP2 (Homo sapiens, UniProt P08253) and state it.
Result: 7.22
